# Study Conditions: in vivo, po, 100 mg/kg, 2 h
Parameter: Hematic levels in the rat. Scope: all listed entries.
The figure you give is taken to be in µg/mL; do not add the unit.

// worked examples, Hematic levels in the rat included
Exam item: Hello, please tell me recorded Hematic levels in the rat for this one: CCC(=O)O[C@H]1[C@H](O[C@@H]2[C@@H](C)[C@H](O[C@H]3C[C@@](C)(OC)[C@@H](O)[C@H](C)O3)[C@@H](C)C(=O)O[C@H](CC)[C@@](C)(O)[C@H](O)[C@@H](C)C(=O)[C@H](C)C[C@@]2(C)O)O[C@H](C)C[C@@H]1N(C)C [RV15]
Marked response: 2.68

Exam item: Please give measured Hematic levels in the rat of the following entry: CCC(=O)O[C@H]1[C@H](O[C@@H]2[C@@H](C)[C@H](O[C@H]3C[C@@](C)(OC)[C@@H](O)[C@H](C)O3)[C@@H](C)C(=O)O[C@H](CC)[C@@](C)(O)[C@H](O)[C@@H](C)C(=O)[C@H](C)C[C@@]2(C)O)O[C@H](C)C[C@@H]1N(C)C [RV13]
Marked response: 2.47

Exam item: Item CCC(=O)O[C@H]1[C@H](O[C@@H]2[C@@H](C)[C@H](O[C@H]3C[C@@](C)(OC)[C@@H](O)[C@H](C)O3)[C@@H](C)C(=O)O[C@H](CC)[C@@](C)(O)[C@H](O)[C@@H](C)C(=O)[C@H](C)C[C@@]2(C)O)O[C@H](C)C[C@@H]1N(C)C [RV11] : provide Hematic levels in the rat
Marked response: 2.50

Now let's try a different one.
Exam item: Tell me Hematic levels in the rat reported for CCC(=O)O[C@H]1[C@H](O[C@@H]2[C@@H](C)[C@H](O[C@H]3C[C@@](C)(OC)[C@@H](O)[C@H](C)O3)[C@@H](C)C(=O)O[C@H](CC)[C@@](C)(O)[C@H](O)[C@@H](C)C(=O)[C@H](C)C[C@@]2(C)O)O[C@H](C)C[C@@H]1N(C)C [RV14]
Marked response: 2.55

----------
# Test system: E. cloacae SS 07
# Format: cell-based
# Study Conditions: Brain Heart Infusion, estolate and RV11-RV15 previously hydrolized, unit assumed
Measured Parameter: MIC

Exam item: Report MIC on E. cloacae SS 07 for this entry: CC[C@H]1OC(=O)[C@H](C)[C@@H](O[C@H]2C[C@@](C)(OC)[C@@H](O)[C@H](C)O2)[C@H](C)[C@@H](O[C@@H]2O[C@H](C)C[C@H](N(C)C)[C@H]2O)[C@](C)(O)C[C@@H](C)C(=O)[C@H](C)[C@@H](O)[C@]1(C)O [RV05, erythromycin-N-acetylcysteinate]
Marked response: > 200 µg/mL

Continuing:
Exam item: // fetch MIC; item: CCC(=O)O[C@H]1[C@H](O[C@@H]2[C@@H](C)[C@H](O[C@H]3C[C@@](C)(OC)[C@@H](O)[C@H](C)O3)[C@@H](C)C(=O)O[C@H](CC)[C@@](C)(O)[C@H](O)[C@@H](C)C(=O)[C@H](C)C[C@@]2(C)O)O[C@H](C)C[C@@H]1N(C)C [RV15] ; system: E. cloacae SS 07
Marked response: > 200 µg/mL

Exam item: Report value only: MIC, E. cloacae SS 07, CC[C@H]1OC(=O)[C@H](C)[C@@H](O[C@H]2C[C@@](C)(OC)[C@@H](O)[C@H](C)O2)[C@H](C)[C@@H](O[C@@H]2O[C@H](C)C[C@H](N(C)C)[C@H]2O)[C@](C)(O)C[C@@H](C)C(=O)[C@H](C)[C@@H](O)[C@]1(C)O [erythromycin]
Marked response: > 200 µg/mL

----------
# System: Staph. aureus SS 09
# Assay type: cell-based
# Study Conditions: Brain Heart Infusion, estolate and RV11-RV15 previously hydrolized, unit assumed
# maps each entry to its MIC
# output: bare number, implied unit µg/mL

# example entries with known answers
Exam item: State MIC (Staph. aureus SS 09) of CC[C@H]1OC(=O)[C@H](C)[C@@H](O[C@H]2C[C@@](C)(OC)[C@@H](O)[C@H](C)O2)[C@H](C)[C@@H](O[C@@H]2O[C@H](C)C[C@H](N(C)C)[C@H]2O)[C@](C)(O)C[C@@H](C)C(=O)[C@H](C)[C@@H](O)[C@]1(C)O [RV04, erythromycin-S-carboxymethylcysteinate] .
Marked response: 0.025

Exam item: Give MIC; test system Staph. aureus SS 09; compound CC[C@H]1OC(=O)[C@H](C)[C@@H](O[C@H]2C[C@@](C)(OC)[C@@H](O)[C@H](C)O2)[C@H](C)[C@@H](O[C@@H]2O[C@H](C)C[C@H](N(C)C)[C@H]2O)[C@](C)(O)C[C@@H](C)C(=O)[C@H](C)[C@@H](O)[C@]1(C)O [erythromycin]
Marked response: 0.1

Others:
Exam item: With Staph. aureus SS 09 as the test system, provide measured MIC for this compound: CCC(=O)O[C@H]1[C@H](O[C@@H]2[C@@H](C)[C@H](O[C@H]3C[C@@](C)(OC)[C@@H](O)[C@H](C)O3)[C@@H](C)C(=O)O[C@H](CC)[C@@](C)(O)[C@H](O)[C@@H](C)C(=O)[C@H](C)C[C@@]2(C)O)O[C@H](C)C[C@@H]1N(C)C [RV13]
Marked response: 0.1

Exam item: Report MIC from Staph. aureus SS 09 testing of CC[C@H]1OC(=O)[C@H](C)[C@@H](O[C@H]2C[C@@](C)(OC)[C@@H](O)[C@H](C)O2)[C@H](C)[C@@H](O[C@@H]2O[C@H](C)C[C@H](N(C)C)[C@H]2O)[C@](C)(O)C[C@@H](C)C(=O)[C@H](C)[C@@H](O)[C@]1(C)O [RV05, erythromycin-N-acetylcysteinate]
Marked response: 0.1

----------
Listing of entries alongside the reported Hematic levels in the rat.
# Study Conditions: in vivo, po, 100 mg/kg, 0.3 h
Your answer is read as µg/mL, so omit the unit and give the number.

Exam item: Specify Hematic levels in the rat for CCC(=O)O[C@H]1[C@H](O[C@@H]2[C@@H](C)[C@H](O[C@H]3C[C@@](C)(OC)[C@@H](O)[C@H](C)O3)[C@@H](C)C(=O)O[C@H](CC)[C@@](C)(O)[C@H](O)[C@@H](C)C(=O)[C@H](C)C[C@@]2(C)O)O[C@H](C)C[C@@H]1N(C)C [RV15] and stop.
Marked response: 0.85

Exam item: Indicate the recorded Hematic levels in the rat value for this molecule: CCC(=O)O[C@H]1[C@H](O[C@@H]2[C@@H](C)[C@H](O[C@H]3C[C@@](C)(OC)[C@@H](O)[C@H](C)O3)[C@@H](C)C(=O)O[C@H](CC)[C@@](C)(O)[C@H](O)[C@@H](C)C(=O)[C@H](C)C[C@@]2(C)O)O[C@H](C)C[C@@H]1N(C)C [RV13]
Marked response: 0.81

Exam item: Quote Hematic levels in the rat reported for CCC(=O)O[C@H]1[C@H](O[C@@H]2[C@@H](C)[C@H](O[C@H]3C[C@@](C)(OC)[C@@H](O)[C@H](C)O3)[C@@H](C)C(=O)O[C@H](CC)[C@@](C)(O)[C@H](O)[C@@H](C)C(=O)[C@H](C)C[C@@]2(C)O)O[C@H](C)C[C@@H]1N(C)C [RV11] please.
Marked response: 0.72

Okay, now this molecule:
Exam item: Check the records and state Hematic levels in the rat for CCC(=O)O[C@H]1[C@H](O[C@@H]2[C@@H](C)[C@H](O[C@H]3C[C@@](C)(OC)[C@@H](O)[C@H](C)O3)[C@@H](C)C(=O)O[C@H](CC)[C@@](C)(O)[C@H](O)[C@@H](C)C(=O)[C@H](C)C[C@@]2(C)O)O[C@H](C)C[C@@H]1N(C)C [RV14]
Marked response: 0.72

----------
# Assay Details: Hematic levels in the healthy volunteer
# Assay type: in vivo, healthy volunteers
# Study Conditions: 2 hours; oral, 500 mg of erythromycin; average; 120 min
Hematic levels in the healthy volunteer: recorded values
Numbers only here, please. The scale is µg/mL.

Some compounds with known Hematic levels in the healthy volunteer results, for comparison:
Exam item: State, in one line, measured Hematic levels in the healthy volunteer of CCC(=O)O[C@H]1[C@H](O[C@@H]2[C@@H](C)[C@H](O[C@H]3C[C@@](C)(OC)[C@@H](O)[C@H](C)O3)[C@@H](C)C(=O)O[C@H](CC)[C@@](C)(O)[C@H](O)[C@@H](C)C(=O)[C@H](C)C[C@@]2(C)O)O[C@H](C)C[C@@H]1N(C)C [RV13]
Marked response: 2.21

Exam item: Answer with the recorded Hematic levels in the healthy volunteer of CCC(=O)O[C@H]1[C@H](O[C@@H]2[C@@H](C)[C@H](O[C@H]3C[C@@](C)(OC)[C@@H](O)[C@H](C)O3)[C@@H](C)C(=O)O[C@H](CC)[C@@](C)(O)[C@H](O)[C@@H](C)C(=O)[C@H](C)C[C@@]2(C)O)O[C@H](C)C[C@@H]1N(C)C [RV11] only.
Marked response: 2.16

Exam item: Report Hematic levels in the healthy volunteer, nothing else, for this compound: CCC(=O)O[C@H]1[C@H](O[C@@H]2[C@@H](C)[C@H](O[C@H]3C[C@@](C)(OC)[C@@H](O)[C@H](C)O3)[C@@H](C)C(=O)O[C@H](CC)[C@@](C)(O)[C@H](O)[C@@H](C)C(=O)[C@H](C)C[C@@]2(C)O)O[C@H](C)C[C@@H]1N(C)C [RV15]
Marked response: 2.17

Field: next compound
Exam item: Give a short answer stating reported Hematic levels in the healthy volunteer for CCC(=O)O[C@H]1[C@H](O[C@@H]2[C@@H](C)[C@H](O[C@H]3C[C@@](C)(OC)[C@@H](O)[C@H](C)O3)[C@@H](C)C(=O)O[C@H](CC)[C@@](C)(O)[C@H](O)[C@@H](C)C(=O)[C@H](C)C[C@@]2(C)O)O[C@H](C)C[C@@H]1N(C)C [RV14] .
Marked response: 2.28
